test: Cell viability by Trypan blue dye exclusion, kidney cells; type: in vivo, Wistar rats; details: male, Wistar, rat, kidney cells, oral; % in relation to saline solution group; 50 mg/kg b.w. gavage x4 + cDDP 6 mg/kg b.w. i.p.
metric: viability at 24 h (%)
Use % as the unit, but write only the number.

Ask: Any idea what its viability at 24 h is? The compound is COc1cc(C=CC(=O)CC(=O)C=Cc2ccc(O)c(OC)c2)ccc1O [CMN]
Reply: 88.5

----------
Assay: Cell viability by Trypan blue dye exclusion, peripheral blood cells
Assay type: in vivo, Wistar rats
Details: male, Wistar, rat, peripheral blood cells, oral; % in relation to saline solution group; 50 mg/kg b.w. gavage x4 + i.p. saline
Experimental: These were administered via gavage at 72 h, 48 h, 24h or 30 min before the intraperitoneal administration of saline solution or the antitumoral agent cDDP, which was used as a damage-inducing agent. […] To check for possible cytotoxic effects of the treatments, cell viability was determined via the Trypan blue dye exclusion method. […] Tail intensity (% tail DNA) was evaluated using the Comet Assay IV software (Perceptive Instruments, Suffolk, UK).
metric: viability at 24 h (%)
Dear colleague, please return just the value in %, with no unit written.

Ask: # lookup: viability at 24 h of "COc1cc(C=CC(=O)CC(=O)C=Cc2ccc(O)c(OC)c2)ccc1O"
Reply: 98.7

Where do the numbers come from? From paper PMC4763312.
